Biological target: human α2A-adrenergic receptor (α2AAR) (Homo sapiens, UniProt P08913)
Construct: expressed in transfected cells; host or cells: HEK293T (transient)
Sequence (P08913 whole entry): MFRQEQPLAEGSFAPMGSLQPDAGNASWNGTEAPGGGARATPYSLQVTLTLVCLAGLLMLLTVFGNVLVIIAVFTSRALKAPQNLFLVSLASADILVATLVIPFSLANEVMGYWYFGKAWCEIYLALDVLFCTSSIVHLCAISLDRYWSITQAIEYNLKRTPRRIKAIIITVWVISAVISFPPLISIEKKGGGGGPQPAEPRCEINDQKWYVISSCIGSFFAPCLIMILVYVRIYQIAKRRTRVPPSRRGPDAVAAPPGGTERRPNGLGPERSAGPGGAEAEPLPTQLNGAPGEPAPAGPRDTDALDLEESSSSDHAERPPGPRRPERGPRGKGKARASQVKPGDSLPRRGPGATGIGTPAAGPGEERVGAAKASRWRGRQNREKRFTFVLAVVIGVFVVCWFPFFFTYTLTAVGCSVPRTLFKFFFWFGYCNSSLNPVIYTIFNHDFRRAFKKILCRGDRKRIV
Assay: BRET between α2AAR and tagged G protein subunits (Gβ1, Gγ2, Gαi1-91Rluc, Gαi1-122Rluc) in living HEK293T cells
Format: cell-based
reportedProperty: change in BRET2, α2AAR-Rluc / GFP10-Gγ2

1. Cc1cccc([C@H](C)c2cnc[nH]2)c1C; partial increase in BRET
2. Clc1cccc(Cl)c1N=C1NCCN1; partial increase in BRET

Source: patent US9029097B2
